Tgt: Mu-type opioid receptor (Rattus norvegicus, UniProt P33535)
Sequence (P33535 whole entry): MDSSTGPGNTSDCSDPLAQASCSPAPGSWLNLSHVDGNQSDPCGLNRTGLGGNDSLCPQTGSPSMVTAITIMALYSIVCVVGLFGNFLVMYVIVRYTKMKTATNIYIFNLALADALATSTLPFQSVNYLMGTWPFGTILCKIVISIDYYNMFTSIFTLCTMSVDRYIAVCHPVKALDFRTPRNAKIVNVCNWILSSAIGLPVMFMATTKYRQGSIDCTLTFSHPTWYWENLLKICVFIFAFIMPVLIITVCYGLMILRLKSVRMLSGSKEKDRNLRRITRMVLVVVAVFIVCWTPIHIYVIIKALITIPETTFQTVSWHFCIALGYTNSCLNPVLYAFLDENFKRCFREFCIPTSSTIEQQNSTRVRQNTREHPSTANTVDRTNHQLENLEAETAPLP
Assay name: Displacement of [3H]DAMGO from rat MOP stably expressed in CHO cell membrane
Format: cell membranes
Each entry below lists one item and its recorded Ki value.
Measurement type: Ki (nM)

• C[C@@H]1NC(=O)[C@H]2CCCN2C(=O)[C@H](Cc2ccccc2)NC(=O)[C@@H](Cc2c[nH]c3ccccc23)NC1=O = 299
• C[C@@H]1C(=O)N[C@@H](Cc2ccccc2)C(=O)N[C@H](Cc2c[nH]c3ccccc23)C(=O)N[C@@H](Cc2ccccc2)C(=O)N1C = 257

* * *

Tgt: Kappa-type opioid receptor (Mus musculus)
Sequence (P33534 whole entry): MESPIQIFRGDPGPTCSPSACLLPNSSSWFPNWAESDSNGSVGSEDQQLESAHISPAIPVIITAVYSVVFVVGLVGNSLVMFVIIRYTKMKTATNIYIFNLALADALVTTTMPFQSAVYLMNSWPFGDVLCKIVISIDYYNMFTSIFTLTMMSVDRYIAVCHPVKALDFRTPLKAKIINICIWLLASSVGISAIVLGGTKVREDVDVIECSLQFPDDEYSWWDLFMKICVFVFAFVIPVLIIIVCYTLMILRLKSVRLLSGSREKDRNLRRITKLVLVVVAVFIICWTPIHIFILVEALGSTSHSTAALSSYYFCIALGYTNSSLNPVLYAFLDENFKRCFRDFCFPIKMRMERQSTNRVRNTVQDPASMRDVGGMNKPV
Measurement type: IC50 (µM)

* CC[C@@H]1CN2CC[C@]3(O)c4c(cccc4OC)NC3[C@@H]2C[C@@H]1/C(=C\OC)C(=O)OC (stereo partly specified) | 7.9
